Origin of values: patent US20160166488A1

System: MMP-1
experiment: Inhibition of MMP-1 synthesis: release of MMP-1 from dermal fibroblasts as an effect of UV radiation (Amersham kit RPN2610)
Assay type: cell-based
conditions: dermal fibroblast culture, without UVA; test product conc. 0.001 % w/v; incubation 36 h at 37° C.; threefold determination
measuredEndpoint: MMP without UVA
Answer shape: numeric part, then the unit.

Example entries and their recorded answers appear below.
INSERT INTO results (molecule, measuredendpoint, experimentalresult) VALUES
  ('NCCC(=O)N[C@@H](Cc1cnc[nH]1)C(=O)O', 'MMP without UVA', '22 ± 5 rel. %'),
  ('CCCCC(CC)COC(=O)C(C#N)=C(c1ccccc1)c1ccccc1 (stereo not shown)', 'MMP without UVA', '17 ± 7 rel. %'),
  ('C[N+](C)(C)C[C@H](O)CC(=O)O.[Cl-] [Carnitine*HCl]', 'MMP without UVA', '24 ± 7 rel. %');

Now, please, on to the next molecule.
Lookup: Can you look up the measured MMP without UVA of `CCCCCCOC(=O)c1ccccc1C(=O)c1ccc(N(CC)CC)cc1O` for me?
Found: 17 ± 3 rel. %
